target.of.assay: UniProt P00918
procedure.details: Inhibition of recombinant human carbonic anhydrase-2 incubated for 15 mins by stopped flow CO2 hydrase assay
pKi: −log10 of the molar value.
observed.property: pKi

Here is how some compounds turned out for pKi.
| smiles.input | pKi |
| --- | --- |
| Nc1nc(NC(=O)Nc2ccc(S(N)(=O)=O)cc2)nn1-c1ccc(S(N)(=O)=O)cc1 | 7.10 |
| Cc1cc(=O)n2c(C(=O)N/N=C/c3ccncc3)nn(-c3ccc(S(N)(=O)=O)cc3)c2n1 | 6.34 |
| C/C(=N\NC(=O)c1nc(N)n(-c2ccc(S(N)(=O)=O)cc2)n1)c1ccc(N2CCOCC2)cc1 | 7.27 |

1. Cc1cc(=O)n2c(C(=O)N/N=C/c3ccccn3)nn(-c3ccc(S(N)(=O)=O)cc3)c2n1
2. CCOC(=O)c1nn(-c2ccc(S(N)(=O)=O)cc2)c2nc(C)cc(=O)n12
[Q] Which gives the smaller pKi number: 1 or 2 ? Indicate your choice by writing its label.
[A] 1
(1: 6.27, 2: 7.07)

====

target.of.assay: Carbonic anhydrase 2 (Homo sapiens, UniProt P00918)
procedure.details: Inhibition of recombinant human carbonic anhydrase-2 at 1 uM after 15 mins by stopped flow CO2 hydrase assay (reference value: 0%)
observed.property: inhibition at 0.25 h, 1 µM (%)
Give just the number in %; leave the unit off.

[Q] Report inhibition at 0.25 h, 1 µM, nothing else, for this compound: `COc1ccc(NC(=O)Nc2nc(N)n(-c3ccc(S(N)(=O)=O)cc3)n2)cc1`
[A] 76

====

target.of.assay: Carbonic anhydrase 9 (Homo sapiens, UniProt Q16790)
procedure.details: Inhibition of recombinant human carbonic anhydrase-9 incubated for 15 mins by stopped flow CO2 hydrase assay
pKi: −log10 of the molar value.
observed.property: pKi

Recorded pKi, per entry:
| smiles.input | pKi |
| --- | --- |
| Cc1cc(=O)n2c(C(=O)N/N=C/c3ccc(N4CCN(C)CC4)cc3)nn(-c3ccc(S(N)(=O)=O)cc3)c2n1 | 7.07 |
| Nc1nc(NC(=O)Nc2ccc(C(=O)O)cc2)nn1-c1ccc(S(N)(=O)=O)cc1 | 7.82 |
| Nc1nc(C(=O)NNC(=S)Nc2ccc(Cl)cc2)nn1-c1ccc(S(N)(=O)=O)cc1 | 7.78 |
| Nc1nc(C(=O)NNC(=S)Nc2ccccc2)nn1-c1ccc(S(N)(=O)=O)cc1 | 7.40 |
| Nc1nc(C(=O)N/N=C/c2ccc(O)cc2)nn1-c1ccc(S(N)(=O)=O)cc1 | 8.08 |
| COc1ccc(NC(=O)Nc2nc(N)n(-c3ccc(S(N)(=O)=O)cc3)n2)cc1 | 8.48 |

a. Nc1nc(C(=O)N/N=C/c2ccccc2)nn1-c1ccc(S(N)(=O)=O)cc1
b. NS(=O)(=O)c1ccc(-n2nnc(C(=O)N/N=C(/CC(=O)c3ccccn3)C(F)(F)F)c2-c2ccccc2)cc1
[Q] Which value of pKi is numerically greater: that of a or that of b ? Indicate which entry you chose by stating its label.
[A] b
(b: 9.15, a: 7.39)

a. CCOC(=O)c1nn(-c2ccc(S(N)(=O)=O)cc2)c2nc(C)cc(=O)n12
b. Nc1nc(C(=O)N/N=C/c2cccnc2)nn1-c1ccc(S(N)(=O)=O)cc1
[Q] Quick check, higher pKi between a and b ? Return value: the label identifying the chosen record.
[A] b

a. COc1ccc(/C=N/NC(=O)c2nn(-c3ccc(S(N)(=O)=O)cc3)c3nc(C)cc(=O)n23)cc1
b. Nc1nc(C(=O)N/N=C/c2ccc(F)cc2)nn1-c1ccc(S(N)(=O)=O)cc1
[Q] Consider entries a and b . Which has the numerically lower pKi? Write the label of whichever entry you select.
[A] a
(a: 7.20, b: 7.50)
